# ASSAY_SUMMARY: chemical genetic growth profiling, strain panel (AID 1159580);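 further: tested at 20 µM; growth read once vehicle control cultures reached saturation at 30 °C; 1 = growth at the plate median or of vehicle wells; lower values mean less growth of the strain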
# CONDITION_SUMMARY: S. cerevisiae deletion strains, growth OD, locus YPR163C, strain tif3, hits give low values
About 2,000 (36%) of roughly 5,500 compounds were called active. About 18% were inconclusive and are not listed. Some of the results follow.
Please respond with reported normalized growth for every item in the list.
Form: value (number only, do not type unit).

Look up normalized growth for this compound: "CCN1C[C@]2(C)CC[C@H](OC)[C@]34C2[C@H](O)[C@]2(OCO[C@@]25C[C@H](OC)[C@H]2C[C@]3(O)C5[C@H]2O)C14" 1.02

Look up normalized growth for this compound: "CNC(=O)Oc1cccc2c1OC(C)(C)O2" 0.988

Look up normalized growth for this compound: "NC(N)=NC(=O)c1nc(Cl)c(N)nc1N" 1.02

Look up normalized growth for this compound: CCCCCCCCCCCCCCCCCC(=O)OC(CC(=O)O)C[N+](C)(C)C (stereo not drawn) 0.0804

Look up normalized growth for this compound: "COc1ccc(-c2cc(=O)c3c(O)cc(O[C@H]4O[C@H](CO[C@@H]5O[C@@H](C)[C@H](O)[C@@H](O)[C@H]5O)[C@@H](O)[C@H](O)[C@H]4O)cc3o2)cc1" 1.02

Look up normalized growth for this compound: "COc1ccc(-c2oc3c(CC=C(C)C)c(O[C@@H]4O[C@H](CO)[C@@H](O)[C@H](O)[C@H]4O)cc(O)c3c(=O)c2O[C@@H]2O[C@@H](C)[C@H](O)[C@@H](O)[C@H]2O)cc1" 0.978

Look up normalized growth for this compound: C[N+](C)(C)CC(O)CC(=O)O (stereo not drawn) 0.994

Look up normalized growth for this compound: "CC(=O)OCC1=C(C(=O)O)N2C(=O)[C@@H](NC(=O)Cc3cccs3)[C@H]2SC1" 0.984

====

# ASSAY_SUMMARY: chemical genetic growth profiling, strain panel (AID 1159580);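 further: tested at 20 µM; growth read once vehicle control cultures reached saturation at 30 °C; 1 = growth at the plate median or of vehicle wells; lower values mean less growth of the strain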
# CONDITION_SUMMARY: S. cerevisiae deletion strains, growth OD, locus YER155C, strain BEM2 (second series), hits give low values
The whole screen tested about 5,500 compounds, of which about 2,000 (36%) were called active. Another 18% or so got no clear call; they are omitted. Some of the results follow.
Please respond with reported normalized growth for every item in the list.
Form: value (number only, do not type unit).

Look up normalized growth for this molecule: "C=C(C)[C@H]1COc2cc3oc(=O)ccc3cc2O1" 0.444

Look up normalized growth for this molecule: "COc1ccc(-c2oc3c(CC=C(C)C)c(O[C@@H]4O[C@H](CO)[C@@H](O)[C@H](O)[C@H]4O)cc(O)c3c(=O)c2O[C@@H]2O[C@@H](C)[C@H](O)[C@@H](O)[C@H]2O)cc1" 1.05

Look up normalized growth for this molecule: "COc1ccc(-c2cc(=O)c3c(O)cc(O[C@H]4O[C@H](CO[C@@H]5O[C@@H](C)[C@H](O)[C@@H](O)[C@H]5O)[C@@H](O)[C@H](O)[C@H]4O)cc3o2)cc1" 1.02

Look up normalized growth for this molecule: "CCCCCC(=O)Cc1cc(O)cc(O)c1C(=O)Oc1cc(CC(=O)CCCCC)c(C(=O)O)c(OC)c1" 0.639

Look up normalized growth for this molecule: CC(=O)Oc1ccc2c(c1OC(C)=O)OCC1(O)Cc3c(cc(OC(C)=O)c(OC(C)=O)c3OC(C)=O)C21 (configuration not stated) 1.02

Look up normalized growth for this molecule: "CCOCN(C(=O)CCl)c1c(C)cccc1CC" 0.972

Look up normalized growth for this molecule: "CC1(C)O[C@H]2CC(=O)OC[C@]23[C@H]2CC[C@@]4(C)[C@H](c5ccoc5)OC(=O)[C@H]5O[C@]54[C@]2(C)C(=O)C[C@@H]13" 0.952

Look up normalized growth for this molecule: "COC1=CC(=O)C(O)=C/C1=C\C=C\c1ccccc1" 0.0935

Look up normalized growth for this molecule: C[C@H]1O[C@H](OC2[C@@H](O)[C@@H](O)C(O)[C@H](O)[C@H]2O)[C@@H](N)C[C@@H]1N=C(N)C(=O)O (some centres not stated) 1.02

Look up normalized growth for this molecule: "COc1cc(O)c2c(=O)c(O)c(-c3ccc(O)c(O)c3)oc2c1" 0.789

Look up normalized growth for this molecule: "NC(=NCCC[C@H](N)C(=O)O)N[N+](=O)[O-]" 1.06

Look up normalized growth for this molecule: "COc1c2ccoc2cc2oc(=O)ccc12" 0.653

Look up normalized growth for this molecule: "COc1ccc(-c2oc3cc(O[C@H]4O[C@H](CO)[C@@H](O)[C@H](O)[C@H]4O)c(OC)c(O)c3c(=O)c2OC)cc1O" 0.998

Look up normalized growth for this molecule: "CC(C)[N+](C)(CCC(C(N)=O)(c1ccccc1)c1ccccc1)C(C)C" 1

Look up normalized growth for this molecule: CC1(C)C(=O)C=C[C@@]2(C)C1C[C@@H](O)[C@]1(C)C2CC[C@@]2(C)[C@H](c3ccoc3)OC(=O)[C@H]3O[C@]321 (some centres not stated) 1

Look up normalized growth for this molecule: CC1(C)C=CC(=O)[C@@]2(C)C1CC(=O)[C@]1(C)C2CC[C@@]2(C)[C@H](c3ccoc3)OC(=O)C3OC321 (some centres not stated) 1.01

Look up normalized growth for this molecule: O=C(Cc1cccs1)NC1C(=O)N2C(C(=O)[O-])=C(C[n+]3ccccc3)CSC12 (configuration not stated) 0.987

Look up normalized growth for this molecule: O=C(OC1Cc2c(O)cc(O)cc2OC1c1cc(=O)c(O)c2c(O)c(O)cc(C3Oc4cc(O)cc(O)c4CC3O)c2c1)c1cc(O)c(O)c(O)c1 (configuration not stated) 0.927

Look up normalized growth for this molecule: "O=c1c(O)c(-c2ccc(O)c(O)c2)oc2cc(O)cc(O)c12" 0.899

Look up normalized growth for this molecule: NS(=O)(=O)c1cc(C2(O)NC(=O)c3ccccc32)ccc1Cl (configuration not stated) 0.939

Look up normalized growth for this molecule: "COc1cc2occc2c2oc(=O)ccc12" 0.821

Look up normalized growth for this molecule: "O=C(O[C@@H]1Cc2c(O)cc(O)cc2O[C@@H]1c1cc(O)c(=O)c2c(O)c(O)cc([C@H]3Oc4cc(O)cc(O)c4C[C@H]3OC(=O)c3cc(O)c(O)c(O)c3)c2c1)c1cc(O)c(O)c(O)c1" 0.836

Look up normalized growth for this molecule: "NC(=O)CN1CCCC1=O" 0.975

Look up normalized growth for this molecule: "O=C(O[C@@H]1Cc2c(O)cc(O)cc2O[C@@H]1c1cc(O)c(=O)c2c(O)c(O)cc([C@H]3Oc4cc(O)cc(O)c4C[C@H]3O)c2c1)c1cc(O)c(O)c(O)c1" 0.849

Look up normalized growth for this molecule: "CCCCCc1c2c(cc(O)c1C(=O)O)OC(=O)c1c(cc(OC)cc1C(=O)CCCC)O2" 0.998

Look up normalized growth for this molecule: CC(CC(C(N)=O)(c1ccccc1)c1ccccc1)N(C)C (configuration not stated) 0.985

Look up normalized growth for this molecule: C=CC1C2=CCOC(=O)C2=COC1OC1OC(CO)C(O)C(O)C1O (configuration not stated) 1.05

Look up normalized growth for this molecule: CCN(Cc1ccncc1)C(=O)C(CO)c1ccccc1 (configuration not stated) 1.03

Look up normalized growth for this molecule: "C[C@@H]([C@H](O)c1ccccc1)N(C)C" 1.03

Look up normalized growth for this molecule: "O=c1c(O)c(-c2ccc(O)cc2O)oc2cc(O)cc(O)c12" 0.977

Look up normalized growth for this molecule: Oc1ccc2c(c1)OCC1(O)Cc3cc(O)c(O)cc3C21 (configuration not stated) 1.03

Look up normalized growth for this molecule: "O=c1cc(-c2ccc(O)cc2)oc2cc(O[C@@H]3O[C@H](CO)[C@@H](O)[C@H](O)[C@H]3O)cc(O)c12" 1.05

Look up normalized growth for this molecule: "CCCCOc1cc(C(=O)NCCN(CC)CC)c2ccccc2n1" 0.886

Look up normalized growth for this molecule: "COc1ccc(Cl)cc1C(=O)NCCc1ccc(S(=O)(=O)NC(=O)NC2CCCCC2)cc1" 0.996

Look up normalized growth for this molecule: "COC1=CC(=O)C(C(=O)c2ccccc2)=CC1=O" 0.975

Look up normalized growth for this molecule: "COc1cc(OC)c2c(=O)c(O)c(-c3ccc(OC)c(OC)c3)oc2c1" 0.936

Look up normalized growth for this molecule: Cc1ccccc1OCC(O)CO (configuration not stated) 0.969
